Origin of values: PubChem BioAssay (EPA / NIEHS)

read-out: Bcl-2 (BID) gene, BID (gene 637); experiment: LTEA_HepaRG_BID: Life Technologies and Expression Analysis (LTEA) Assay for Bcl-2 (BID) gene using HepaRG (AID 2283476); conditions: mRNA level, 48 h; actives raise or lower the signal
Activity calls are given as the source filed them. The calls were made as follows: active = hit-call score of the fitted dose curve at least 0.9, where 1 is the maximum; inactive = score below 0.9.
testReadout: AC50

>>> result("OCCC(F)(F)C(F)(F)C(F)(F)C(F)(F)C(F)(F)C(F)(F)C(F)(F)C(F)(F)F")
"inactive"
>>> result("O=[N+]([O-])c1ccc(O)cc1")
"inactive"
>>> result("O=c1c(-c2ccc(O)cc2)coc2cc(O)ccc12")
"inactive"
>>> result("C[C@@H]1C[C@H]2[C@@H]3CCC4=CC(=O)C=C[C@]4(C)[C@@]3(F)[C@@H](O)C[C@]2(C)[C@@]1(O)C(=O)COP(=O)(O)O")
"inactive"
>>> result("CCOC(=O)CC(O)(CC(=O)OCC)C(=O)OCC")
"inactive"
>>> result("OC1CCC(C2CCCCC2)CC1 (stereo unspecified)")
"inactive"
>>> result("COc1ccc([N+](=O)[O-])cc1N")
"inactive"
>>> result("CCCCCCC(=O)O")
"inactive"
>>> result("CCCOc1sc(C(=O)N2CCC(c3cc(CN)ccc3F)CC2)c(C)c1Br")
"0.0539 µM (active)"
>>> result("CCCCCCCCCCCCc1ccccc1S(=O)(=O)O")
"inactive"

Looking up COCC(C)O (stereo unspecified) , I found its AC50 recorded as inactive

Looking up CC(C)(C)c1cccc(C(C)(C)C)c1O , I found its AC50 recorded as inactive

Looking up CCCCCCCCC(=O)O , I found its AC50 recorded as inactive

====

read-out: growth arrest and DNA damage 45 (GADD45G), GADD45G (gene 10912); assay: LTEA_HepaRG_GADD45G: Life Technologies and Expression Analysis (LTEA) Assay for growth arrest and DNA damage 45 (GADD45G) using HepaRG (AID 2283499); details: mRNA level, 48 h; actives raise or lower the signal
The source made the active and inactive calls. Rule for the calls: active = hit-call score of the fitted dose curve at least 0.9, where 1 is the maximum; inactive = score below 0.9.
Hello, when you answer, please use one of the following outcomes: yes (1) = active, no (0) = inactive

## Task GET /call?item= CCc1ccc(CCOc2ccc(CC3SC(=O)NC3=O)cc2)nc1 (stereo not drawn) returns the recorded outcome of this test.
## Result yes (1)

## Task GET /call?item= CCCCCCCC(=O)O returns the recorded outcome of this test.
## Result no (0)

## Task GET /call?item= CCC(C)(C)C1CCC(O)CC1 (stereo not drawn) returns the recorded outcome of this test.
## Result no (0)

====

test: TOX21_p53_BLA_p5_viability: Viability Assessment in the Tox21 HCT-116 p53 Agonism Beta-lactamase Assay, Phase 5 (AID 2283600)
Results filed as inconclusive are left out. Activity calls are given as the source filed them. Rule for the calls: active = hit-call score of the fitted dose curve at least 0.9, where 1 is the maximum; inconclusive = response in the unintended direction; inactive = score below 0.9.
Hello, when you answer, please use one of the following outcomes: active, inactive

## Task GET /call?item= CCCCCCCCCCCCN1CCCC1=O returns the recorded outcome of this test.
## Result active

## Task GET /call?item= O=C1OC2(c3ccccc31)c1cc(Br)c(O)c(Br)c1Oc1c2cc(Br)c(O)c1Br returns the recorded outcome of this test.
## Result inactive

## Task GET /call?item= Cc1oc(-c2ccccc2)nc1CCOc1ccc(C[C@H](Nc2ccccc2C(=O)c2ccccc2)C(=O)O)cc1 returns the recorded outcome of this test.
## Result active

## Task GET /call?item= CC(C)(C)CC(C)(C)c1ccc(O)c(-n2nc3ccccc3n2)c1 returns the recorded outcome of this test.
## Result inactive

## Task GET /call?item= CCC(C)(C)C1CCC(O)CC1 (stereo not given) returns the recorded outcome of this test.
## Result inactive
